Test system: rodent lifetime carcinogenesis bioassay, tumor incidence TD50
PROTOCOL SUMMARY: carcinogenic potency in animals, long-term in vivo studies, CPDB compilation (AID 1745844)
RECORDED CONDITIONS: hamster; strain Syrian Golden; females; by gavage; site: liver; lesion: Kupffer-cell sarcoma; dosed 90 weeks; study length 90 weeks
Calls of active or inactive are those of the source. No rule for the calls is given here.
READOUT TYPE: TD50

[Q] Entry N#[N+]c1ccccc1 has what TD50?
[A] 66.1 mg/kg/day (inactive)

---

Tested on: rodent lifetime carcinogenesis bioassay, tumor incidence TD50
PROTOCOL SUMMARY: carcinogenic potency in animals, long-term in vivo studies, CPDB compilation (AID 1745844)
RECORDED CONDITIONS: mouse; strain C57BL/6NCrj; females; in feed; site: liver; lesion: hepatocellular adenoma; dosed 85 weeks; study length 85 weeks
READOUT TYPE: TD50 (mg/kg/day)
Numbers only, in mg/kg/day.

[Q] Entry under review: Cc1cc2ncccc2c2nc(N)n(C)c12 . Reported TD50?
[A] 80
